Values from patent US6903079B2

biological target: PARS (Mus musculus, UniProt P11103); assay: PARS inhibition by nucleoside derivatives (in vitro inflammation models); format: cell-based; settings: 10 μM; Table 3 parent/reference compounds; read-out: INHIBITION at 10 μM
Sequence (P11103 whole entry): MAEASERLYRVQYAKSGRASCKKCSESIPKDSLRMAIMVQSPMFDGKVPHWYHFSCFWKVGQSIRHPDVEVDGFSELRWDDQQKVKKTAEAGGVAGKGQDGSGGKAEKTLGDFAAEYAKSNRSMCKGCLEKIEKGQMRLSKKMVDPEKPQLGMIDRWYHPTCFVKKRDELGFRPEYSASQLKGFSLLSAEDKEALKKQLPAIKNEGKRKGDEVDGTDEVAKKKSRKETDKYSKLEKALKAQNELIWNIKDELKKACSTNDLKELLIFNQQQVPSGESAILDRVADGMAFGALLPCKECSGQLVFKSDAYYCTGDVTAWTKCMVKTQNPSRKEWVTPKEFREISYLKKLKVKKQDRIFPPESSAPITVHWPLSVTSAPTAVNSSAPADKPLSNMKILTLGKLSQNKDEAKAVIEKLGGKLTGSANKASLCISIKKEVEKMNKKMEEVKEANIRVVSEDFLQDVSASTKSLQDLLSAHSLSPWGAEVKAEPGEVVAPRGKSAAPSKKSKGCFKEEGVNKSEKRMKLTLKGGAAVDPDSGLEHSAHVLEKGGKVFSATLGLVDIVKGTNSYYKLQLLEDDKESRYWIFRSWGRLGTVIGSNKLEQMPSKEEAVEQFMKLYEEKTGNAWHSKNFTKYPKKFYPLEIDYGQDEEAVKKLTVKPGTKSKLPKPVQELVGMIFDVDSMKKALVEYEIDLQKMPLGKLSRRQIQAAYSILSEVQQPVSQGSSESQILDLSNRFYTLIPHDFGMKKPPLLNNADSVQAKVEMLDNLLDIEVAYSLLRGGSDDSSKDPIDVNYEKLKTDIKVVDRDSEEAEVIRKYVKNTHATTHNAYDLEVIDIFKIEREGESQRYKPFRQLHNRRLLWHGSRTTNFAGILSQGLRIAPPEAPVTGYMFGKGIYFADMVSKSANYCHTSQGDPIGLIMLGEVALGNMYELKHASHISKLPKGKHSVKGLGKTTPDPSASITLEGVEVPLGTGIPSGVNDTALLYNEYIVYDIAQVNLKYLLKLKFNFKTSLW
# binarize inhibition at 10 µM: threshold 30% inclusive, high side label 1, low side label 0

>  <compound>
Nc1ncnc2c1ncn2[C@@H]1O[C@H](CO)[C@@H](O)[C@H]1O [G, adenosine, reference compound]

>  <discrete_label>
label 1

$$$$
>  <compound>
O=C1NCc2ccccc21

>  <discrete_label>
label 1

$$$$
>  <compound>
O=C(O)CCn1ccc2c1CCCC2=O [C, reference compound]

>  <discrete_label>
label 0

$$$$
>  <compound>
Nc1cccc2c1CNC2=O [Compound 4, 4-amino-2,3-dihydro-1H-isoindol-1-one]

>  <discrete_label>
label 0

$$$$

In the following, a different compound is considered.
[Q] Does the reported inhibition at 10 µM for NC(=O)c1ccccc1-c1cccc(N)c1 [F, reference compound] fall at or above the 30% mark?
[A] label 1
